Tested on: HOP-92 NSCLC
Assay: NCI tumour cell line growth inhibition, 48 h
I'd appreciate it if you could supply TGI values for the items below.

{"compound": "O=C(O)CSC1=NCCN1", "reported.result": "> 100 µM"}

Batch lookup, TGI per entry.
1. O=c1[nH]c2c(C(F)(F)F)c(Cl)c(-c3ccccc3)nc2o1
2. CCCCCCCCCCCC1=NC(C)(C)CN1C(C)C
3. Cc1ccc(N=NC(=Nc2ccc(F)cc2)c2ccc(N(CCC#N)CCC#N)cc2)cc1

Result:
1: 75.7 µM; 2: 5.17 µM; 3: > 100 µM

* * *

Test system: UACC-62 melanoma
Assay: NCI tumour cell line growth inhibition, 48 h; in the data active = GI50 below about 0.43 µM; inactive = the rest
Respond only with the outcome that fits, drawn from active, inactive

Example cases with answers are listed next.
{"compound": "N#CSc1c[nH]c2ccc(/C=C/C(=O)/C=C(O)/C=C/c3ccc4[nH]cc(SC#N)c4c3)cc12", "label": "inactive"}
{"compound": "CCCCCOC(=O)c1c(C)[nH]c(/C=C2\\N=C(c3ccc[nH]3)C=C2OC)c1C", "label": "active"}
{"compound": "Cc1cc[c]([Sb]2[O]C(CO)C(C(O)C(O)C(=O)O)[O]2)cc1 (centres undefined)", "label": "inactive"}

Ask: Kindly provide the recorded test outcome for the following compound: `N#Cc1cnc2ccc(NCc3cnc[nH]3)cc2c1Nc1ccc(F)c(Cl)c1`
Result: inactive

Ask: Kindly provide the recorded test outcome for the following compound: `CN(C)CCN1C(=O)c2cccc3cc(N)cc(c23)C1=O`
Result: inactive

Ask: Kindly provide the recorded test outcome for the following compound: `O=C(O)CN(CCN(CC(=O)O)CC(=O)O)CCN(CC(=O)O)CC(=O)O`
Result: inactive

Ask: Kindly provide the recorded test outcome for the following compound: `CCCN1CCC(Oc2cc(Nc3nc(Nc4cccc(F)c4C(N)=O)c4cc[nH]c4n3)c(OC)cc2Cl)CC1`
Result: inactive

Ask: Kindly provide the recorded test outcome for the following compound: `Cc1cc(NC(=O)NCCCOc2ccc(N3C(N)=NC(N)=NC3(C)C)cc2Cl)ccc1S(=O)(=O)F`
Result: inactive

Ask: Kindly provide the recorded test outcome for the following compound: `CN1CCN(c2ccc3nc(-c4[nH]ncc4Nc4ncnc5[nH]ccc45)[nH]c3c2)CC1`
Result: active

* * *

Test system: MDA-MB-435
Test: NCI tumour cell line growth inhibition, 48 h
I'd appreciate it if you could supply TGI values for the items below.
One number for each entry, in µM.

{"compound": "CN1CCN(c2cc(F)c(NC3=C(Cl)C(=O)c4ncccc4C3=O)c(F)c2)CC1", "TGI / µM": 3.2}

// below: TGI requested for another compound
Ask: Which TGI value is on record for Fc1ccc(/C=C2\COCC3=C2NC(=S)NC3c2ccc(F)cc2)cc1 (stereo not drawn) ?
Result: 33.3

* * *

Tested on: UACC-257 melanoma
Experiment: NCI tumour cell line growth inhibition, 48 h; in the data active = GI50 below about 0.43 µM; inactive = the rest
Respond only with the outcome that fits, drawn from Y = active, N = inactive

Example cases with answers are listed next.
{"compound": "C=CC(=O)N1CCN([C@@H](CC2CC2)c2ccc([C@H](C)Nc3ncc4c(n3)N(CC)C(=O)OC4)cc2)CC1", "label": "N"}
{"compound": "COc1cccc2c1C(=O)c1c(O)c3c(c(O)c1C2=O)C[C@@](O)(/C(C)=N/NC(=O)c1cccc([N+](=O)[O-])c1)C[C@@H]3OC1CC(N)C(O)C(C)O1 (some centres undefined)", "label": "N"}
{"compound": "[Cu].c1ccc2c(c1)C1=NC2=NC2=NC(=NC3=NC(=NC4=NC(=N1)c1ccccc14)c1ccccc13)c1ccccc12", "label": "N"}
{"compound": "c1ccc2[nH]c(-c3ccc(Nc4nc(N5CCCC5)nc5[nH]ncc45)cc3)nc2c1", "label": "Y"}
{"compound": "COC1C(OC(=O)/C=C/C=C/C=C/C=C/C(=O)O)CCC2(CO2)C1C1(C)OC1CC=C(C)C (centres undefined)", "label": "N"}

Ask: Kindly provide the recorded test outcome for the following compound: `Cc1ccc(NC(=O)c2ccoc2)cc1-c1ccc(C(=O)NCC2CC2)cc1`
Result: N

Ask: Kindly provide the recorded test outcome for the following compound: `CN(C)CCN1C(=O)c2cccc3cc(N)cc(c23)C1=O`
Result: N

Ask: Kindly provide the recorded test outcome for the following compound: `COc1ccc2c(c1)c(-c1ccc(-c3cn(C)c4ccc(OC)cc34)s1)cn2C`
Result: N

Ask: Kindly provide the recorded test outcome for the following compound: CCCCCCCCCCCC(c1ccccc1)[N+](C)(C)C (centres undefined)
Result: N

* * *

I'd appreciate it if you could supply TGI values for the items below.
Tested on: UACC-62 melanoma
Assay: NCI tumour cell line growth inhibition, 48 h
Where a SMILES comes first, the peptide text is derived from it. [ ]: non-standard residue; d: D form. ξ: configuration not given here. Pentanoyl(2-O,4-OH,5-Cl) = O=C(O)C(O)CC(O)CCl; Ile(3ξ) = CCC(C)[C@H](N)C(=O)O; NMeV = CN[C@H](C(=O)O)C(C)C; NMeA = CN[C@@H](C)C(=O)O; βAla = NCCC(=O)O

These recorded examples may help you get a feel for the data.
{"compound": "Fc1ccc(/C=C2\\COCC3=C2NC(=S)NC3c2ccc(F)cc2)cc1 (configuration not stated)", "target.desc": "UACC-62 melanoma", "TGI": "32.4 µM"}
{"compound": "CCC(=O)N1C(=S)SC[C@H]1C(=O)OC", "target.desc": "UACC-62 melanoma", "TGI": "> 100 µM"}
{"compound": "CCOC(=O)c1sc2nc(=S)[nH]c(NC(N)=S)c2c1C", "target.desc": "UACC-62 melanoma", "TGI": "26.1 µM"}

Batch lookup, TGI per entry.
1. O=C(O)c1c2c(c(O)c3c1CN(C1CCCCC1)CO3)OCN(C1CCCCC1)C2
2. O=C(Nc1ccc(Nc2ccc3c(c2)C(=O)c2ccccc2C3=O)c2c1C(=O)c1ccccc1C2=O)c1ccccc1

Result:
> 100 µM
> 100 µM

Batch lookup, TGI per entry.
1. COc1ccc(OC)c([N+](=O)[O-])c1-c1nc2sc(Cl)cn2c1/C=N/N=C(N)N
2. NCCNCCNCc1c2ccccc2c(CNCCNCCN)c2ccccc12
3. O=c1c2ccccc2c(=O)n2n1-c1cccc(c1)CSSCc1cccc-2c1
4. Cc1cc2c3c(c1)S(=O)(=O)c1cc(Cl)ccc1N3CCC2
5. CCCCCCCCCCCC1=NC(C)(C)CN1C(C)C
6. COC(=O)C12C(=O)CC3CCC1C32C(=O)OC (configuration not stated)
7. Cc1cc(NC(=O)NCCCOc2ccc(N3C(N)=NC(N)=NC3(C)C)cc2Cl)ccc1S(=O)(=O)F
8. CCC(C)[C@@H]1NC(=O)[C@@H]2CCCN2C(=O)C(CC(O)CCl)OC(=O)CCNC(=O)[C@H](C)N(C)C(=O)[C@H](C(C)C)N(C)C1=O (some centres not stated) (cyclo([Ile(3ξ)][NMeV][NMeA][βAla][Pentanoyl(2-O,4-OH,5-Cl)]P))

Result:
["29.5 µM", "> 100 µM", "> 100 µM", "> 100 µM", "3.54 µM", "> 100 µM", "24.9 µM", "7.71 µM"]

* * *

Test system: NCI-H460 lung
Test: NCI tumour cell line growth inhibition, 48 h
I'd appreciate it if you could supply TGI values for the items below.

These recorded examples may help you get a feel for the data.
{"smiles.str": "COc1ccc2c(c1)c(-c1ccc(-c3cn(C)c4ccc(OC)cc34)s1)cn2C", "TGI": "> 100 µM"}
{"smiles.str": "N#CSc1c[nH]c2ccc(/C=C/C(=O)/C=C(O)/C=C/c3ccc4[nH]cc(SC#N)c4c3)cc12", "TGI": "11.2 µM"}
{"smiles.str": "CC[O-].CC[O-].[O-]c1ccccc1C=NC12CC3CC(CC(C3)C1)C2.[O-]c1ccccc1C=NC12CC3CC(CC(C3)C1)C2.[Ti+4]", "TGI": "> 100 µM"}

Batch lookup, TGI per entry.
1. O=c1[nH]c2c(C(F)(F)F)c(Cl)c(-c3ccccc3)nc2o1
2. NC(=O)N/N=C(\Cc1cc(=O)oc2cc(O)ccc12)C(=O)Nc1ccccc1C(N)=O
3. COc1cc(O)c2c(=O)c3cccc(C)c3[nH]c2c1

Result:
1: 69.8 µM; 2: > 100 µM; 3: > 10 µM

Batch lookup, TGI per entry.
1. CCN(CC)c1c(-c2c(OC(C)C)c(=O)c2=O)c(=O)n2ccsc2c1OC(C)=O
2. C#CCOC(=O)C=[N+]=[N-]
3. CCCCCCc1cc2cc(C(=O)Nc3nc(C45CC6CC(CC(C6)C4)C5)cs3)c(=O)oc2cc1O

Result:
> 100 µM
> 10 µM
50.3 µM

* * *

I'd appreciate it if you could supply GI50 values for the items below.
Tested on: OVCAR-5 ovarian
Assay: NCI tumour cell line growth inhibition, 48 h

{"smiles.str": "N#Cc1nc2cc(Cl)c(Cl)cc2nc1-c1ccc(Cl)cc1", "GI50": "> 100 µM"}

Batch lookup, GI50 per entry.
1. CCCN1CCC(Oc2cc(Nc3nc(Nc4cccc(F)c4C(N)=O)c4cc[nH]c4n3)c(OC)cc2Cl)CC1
2. CCOc1cc(/C=C/C(=O)CC(=O)/C=C/c2ccc(OC(=O)CNc3nc4ccc(OC)cc4s3)c(OCC)c2)ccc1OC(=O)CNc1nc2ccc(OC)cc2s1

Result:
3.44 µM
15.3 µM
